systemUnderTest: Muscarinic acetylcholine receptor M1 (Homo sapiens); further: assay procedure not described here
Sequence (P11229 whole entry): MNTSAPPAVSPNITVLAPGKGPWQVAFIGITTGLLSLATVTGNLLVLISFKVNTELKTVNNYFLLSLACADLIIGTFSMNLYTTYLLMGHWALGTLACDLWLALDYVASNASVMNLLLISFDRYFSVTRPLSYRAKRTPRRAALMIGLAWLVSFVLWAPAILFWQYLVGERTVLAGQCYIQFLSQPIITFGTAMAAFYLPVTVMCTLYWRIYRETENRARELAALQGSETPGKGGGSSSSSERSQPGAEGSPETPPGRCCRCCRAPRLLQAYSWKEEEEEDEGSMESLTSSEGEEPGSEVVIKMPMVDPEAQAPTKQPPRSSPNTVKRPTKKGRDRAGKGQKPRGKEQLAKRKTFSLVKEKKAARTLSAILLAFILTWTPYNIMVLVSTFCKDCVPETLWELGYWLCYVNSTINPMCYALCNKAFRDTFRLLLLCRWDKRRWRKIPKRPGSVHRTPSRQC
Format: functional
Entries and their measured AC50 follow.

Some molecules with known AC50 results, for comparison:
molecule | measurementLabel | endpointResult
COc1ccc2c3c1O[C@H]1[C@@H](O)C=C[C@H]4[C@@H](C2)N(C)CC[C@@]341 | AC50 | > 10 µM
CN1CCC(=C2c3ccccc3CCc3sccc32)CC1 | AC50 | 0.093 µM
Clc1ccc(CCCOCCCN2CCCCC2)cc1 | AC50 | > 30 µM
Fc1ccc(C(c2ccccc2)(c2ccccc2F)n2ccnc2)cc1 (stereo not drawn) | AC50 | > 30 µM
Cc1oc(=O)oc1CN1CCN(c2cc3c(cc2F)c(=O)c(C(=O)O)c2n3C(C)S2)CC1 (stereo not drawn) | AC50 | > 30 µM

# input for lookup
Give AC50 for the following molecule: CCN1CCN(C(=O)N[C@@H](C(=O)N[C@@H]2C(=O)N3C(C(=O)O)=C(CSc4nnnn4C)CS[C@H]23)c2ccc(O)cc2)C(=O)C1=O
> 30 µM
